- assay_text: Toxicity in human erythrocytes assessed as hemolysis at 500 uM
- Type: cell-based, Erythrocyte
- study_conditions: read-out: Activity
measurement_label: hemolysis at 500 µM (%)
State the answer as a number, implicitly in %.

Field: example entries. Status: answers known.
C[N+](C)(C)[C@@H]1CCC[C@H]1OP(=O)([O-])OCCCCCCCCCCC=C1CCCCC1 (relative stereo) ... 100
CCCCCCCCCCCCCCCCOP(=O)([O-])O[C@@H]1CCCC[C@H]1[N+](C)(C)C (relative stereo) ... 55.4
C[N+]1(CCOP(=O)([O-])OCCCCCC2CCCCCCCCCCCCCC2)CCOCC1 ... 81.1
CCCCCCCCCCCCCCCCOP(=O)([O-])OCC[N+](C)(C)C ... 100
CCCCCCCCCCCCCCCCOP(=O)([O-])O[C@@H]1CCC[C@H]1[N+](C)(C)C (relative stereo) ... 100

Next compound, please.
## Task State, in one line, measured hemolysis at 500 µM of `C[N+]1(CCOP(=O)([O-])OCCCCCCCCCCC=C2CCCCCCCCCCCCCC2)CCOCC1`
## Result 100
